# TEST TARGET: HLA-A*02:50
# METHOD DESCRIPTION: IEDB peptide-MHC binding, purified MHC/competitive/fluorescence; filed as Kd, often an IC50 or EC50 that approximates it; bounds were set here for any values at or beyond the usual limits of such assays
# ASSAY CONDITIONS: source organism: Salmonella enterica subsp. enterica serovar Typhi
MEASURED ATTRIBUTE: Kd (nM)

INSERT INTO assay_data (ordered_residues, measured_attribute, display_unit, result_value) VALUES
  ('FIKNPACTV', 'Kd', 'nM', 1.9);

====

Kd by entry:
# TEST TARGET: HLA-A*11:01
# METHOD DESCRIPTION: IEDB peptide-MHC binding, purified MHC/competitive/radioactivity; filed as Kd, often an IC50 or EC50 that approximates it; bounds were set here for any values at or beyond the usual limits of such assays
# ASSAY CONDITIONS: source organism: Mammarenavirus juninense
MEASURED ATTRIBUTE: Kd

INSERT INTO measurements (ordered_residues, result_value) VALUES
  ('MVGLLSNSPH', '≥ 41.4 µM'),
  ('GFKNGSRHSH', '≥ 42.7 µM'),
  ('YAKKFKTGMH', '≥ 69.7 µM');

====

# TEST TARGET: HLA-A*26:01
# METHOD DESCRIPTION: IEDB peptide-MHC binding, purified MHC/direct/fluorescence; filed as Kd, often an IC50 or EC50 that approximates it; bounds were set here for any values at or beyond the usual limits of such assays
# ASSAY CONDITIONS: source organism: Variola virus
pKd: −log10 of the molar value.
MEASURED ATTRIBUTE: pKd

INSERT INTO assay_data (ordered_residues, test_target, result_value) VALUES
  ('YHRPLTGYM', 'HLA-A*26:01', '≤ 4.70');

====

# TEST TARGET: HLA-A*02:11
# METHOD DESCRIPTION: IEDB peptide-MHC binding, purified MHC/direct/fluorescence; filed as Kd, often an IC50 or EC50 that approximates it; bounds were set here for any values at or beyond the usual limits of such assays
# ASSAY CONDITIONS: source organism: Orthohantavirus tulaense
pKd: −log10 of the molar value.
MEASURED ATTRIBUTE: pKd

INSERT INTO results (ordered_residues, result_value) VALUES
  ('KLYEGDLRV', '≥ 9.00');

====

# TEST TARGET: HLA-B*45:01
# METHOD DESCRIPTION: IEDB peptide-MHC binding, purified MHC/competitive/radioactivity; filed as Kd, often an IC50 or EC50 that approximates it; bounds were set here for any values at or beyond the usual limits of such assays
# ASSAY CONDITIONS: source organism: SARS coronavirus Tor2
pKd: −log10 of the molar value.
The threshold is inclusive: pKd of exactly 6 counts as true; values below receive false.

INSERT INTO assay_data (ordered_residues, group_label) VALUES
  ('QEIQLLAAV', 'true'),
  ('TELEPPCRF', 'false'),
  ('GEDTVWEVQG', 'false');

====

# TEST TARGET: HLA-A*02:12
# METHOD DESCRIPTION: IEDB peptide-MHC binding, purified MHC/direct/fluorescence; filed as Kd, often an IC50 or EC50 that approximates it; bounds were set here for any values at or beyond the usual limits of such assays
# ASSAY CONDITIONS: source organism: Bacillus anthracis str. 'Ames Ancestor'
MEASURED ATTRIBUTE: Kd

INSERT INTO measurements (ordered_residues, measured_attribute, result_value) VALUES
  ('TKAGMAQYL', 'Kd', '≥ 20 µM');
